B1: ZBTB22 (parent)
chain: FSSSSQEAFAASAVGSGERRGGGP

Variants of: B1
TEST NAME: protein stability index of a GFP-peptide fusion (GPS, HEK-293T) (PSI 1-6); higher = more stable;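 further: lentivirally expressed fusions sorted by FACS into six bins by GFP to DsRed ratio, PSI derived from sequencing read proportions per bin multiplied by bin number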
EXPERIMENTAL CONDITIONS: c terminus: a fixed tail appended
ASSAY METRIC: protein stability index

MUTATION NOTATION: G15Q
ASSAY METRIC: protein stability index
REPORTED VALUE: 3.26
//
MUTATION NOTATION: A8Q
ASSAY METRIC: protein stability index
REPORTED VALUE: 4.09
//
MUTATION NOTATION: S16L
ASSAY METRIC: protein stability index
REPORTED VALUE: 2.75
//
MUTATION NOTATION: P24H
ASSAY METRIC: protein stability index
REPORTED VALUE: 3.75
//
MUTATION NOTATION: G15L
ASSAY METRIC: protein stability index
REPORTED VALUE: 3.89
//
MUTATION NOTATION: G23M
ASSAY METRIC: protein stability index
REPORTED VALUE: 2.91
//
MUTATION NOTATION: S12H
ASSAY METRIC: protein stability index
REPORTED VALUE: 2.94
//
MUTATION NOTATION: E7T
ASSAY METRIC: protein stability index
REPORTED VALUE: 2.78
//
MUTATION NOTATION: S2L
ASSAY METRIC: protein stability index
REPORTED VALUE: 3.13
//
MUTATION NOTATION: S3G
ASSAY METRIC: protein stability index
REPORTED VALUE: 2.35
//
MUTATION NOTATION: G23D
ASSAY METRIC: protein stability index
REPORTED VALUE: 4.21
//
MUTATION NOTATION: G21I
ASSAY METRIC: protein stability index
REPORTED VALUE: 3.48
//
MUTATION NOTATION: A11E
ASSAY METRIC: protein stability index
REPORTED VALUE: 3.85
//
MUTATION NOTATION: G17S
ASSAY METRIC: protein stability index
REPORTED VALUE: 3.39
//
MUTATION NOTATION: G17D
ASSAY METRIC: protein stability index
REPORTED VALUE: 3.88
//
MUTATION NOTATION: G23S
ASSAY METRIC: protein stability index
REPORTED VALUE: 3.25
//
MUTATION NOTATION: V14F
ASSAY METRIC: protein stability index
REPORTED VALUE: 2.99
//
MUTATION NOTATION: S3T
ASSAY METRIC: protein stability index
REPORTED VALUE: 4.04
//
MUTATION NOTATION: V14H
ASSAY METRIC: protein stability index
REPORTED VALUE: 3.86
//
MUTATION NOTATION: S5K
ASSAY METRIC: protein stability index
REPORTED VALUE: 3.91
//
MUTATION NOTATION: R20M
ASSAY METRIC: protein stability index
REPORTED VALUE: 3.3
//
MUTATION NOTATION: G15P
ASSAY METRIC: protein stability index
REPORTED VALUE: 3.58
//
MUTATION NOTATION: E18Q
ASSAY METRIC: protein stability index
REPORTED VALUE: 3.24
//
MUTATION NOTATION: G23R
ASSAY METRIC: protein stability index
REPORTED VALUE: 3.48
//
MUTATION NOTATION: S5Y
ASSAY METRIC: protein stability index
REPORTED VALUE: 1.95
//
MUTATION NOTATION: R19V
ASSAY METRIC: protein stability index
REPORTED VALUE: 3.46
//
MUTATION NOTATION: S3C
ASSAY METRIC: protein stability index
REPORTED VALUE: 2.97
//
MUTATION NOTATION: S3P
ASSAY METRIC: protein stability index
REPORTED VALUE: 2.99
//
MUTATION NOTATION: S12G
ASSAY METRIC: protein stability index
REPORTED VALUE: 3.61
//
MUTATION NOTATION: E7V
ASSAY METRIC: protein stability index
REPORTED VALUE: 1.96
//
MUTATION NOTATION: S5F
ASSAY METRIC: protein stability index
REPORTED VALUE: 2.45
//
MUTATION NOTATION: A13R
ASSAY METRIC: protein stability index
REPORTED VALUE: 3.78
//
MUTATION NOTATION: A8L
ASSAY METRIC: protein stability index
REPORTED VALUE: 2.25
//
MUTATION NOTATION: R20D
ASSAY METRIC: protein stability index
REPORTED VALUE: 3.64
//
MUTATION NOTATION: V14T
ASSAY METRIC: protein stability index
REPORTED VALUE: 3.27
//
MUTATION NOTATION: P24N
ASSAY METRIC: protein stability index
REPORTED VALUE: 3.29
//
MUTATION NOTATION: S5W
ASSAY METRIC: protein stability index
REPORTED VALUE: 2.87
//
MUTATION NOTATION: G17Q
ASSAY METRIC: protein stability index
REPORTED VALUE: 3.31
//
MUTATION NOTATION: G23H
ASSAY METRIC: protein stability index
REPORTED VALUE: 3.39
//
MUTATION NOTATION: Q6G
ASSAY METRIC: protein stability index
REPORTED VALUE: 4.22
//
MUTATION NOTATION: P24S
ASSAY METRIC: protein stability index
REPORTED VALUE: 3.41
//
MUTATION NOTATION: G22Q
ASSAY METRIC: protein stability index
REPORTED VALUE: 3.83
//
MUTATION NOTATION: R19D
ASSAY METRIC: protein stability index
REPORTED VALUE: 2.53
//
MUTATION NOTATION: F9A
ASSAY METRIC: protein stability index
REPORTED VALUE: 5.51
//
MUTATION NOTATION: F9D
ASSAY METRIC: protein stability index
REPORTED VALUE: 5.44
//
MUTATION NOTATION: E7P
ASSAY METRIC: protein stability index
REPORTED VALUE: 3.25
